tested_on: Cholinesterase (Equus caballus)
Sequence (P81908 whole entry): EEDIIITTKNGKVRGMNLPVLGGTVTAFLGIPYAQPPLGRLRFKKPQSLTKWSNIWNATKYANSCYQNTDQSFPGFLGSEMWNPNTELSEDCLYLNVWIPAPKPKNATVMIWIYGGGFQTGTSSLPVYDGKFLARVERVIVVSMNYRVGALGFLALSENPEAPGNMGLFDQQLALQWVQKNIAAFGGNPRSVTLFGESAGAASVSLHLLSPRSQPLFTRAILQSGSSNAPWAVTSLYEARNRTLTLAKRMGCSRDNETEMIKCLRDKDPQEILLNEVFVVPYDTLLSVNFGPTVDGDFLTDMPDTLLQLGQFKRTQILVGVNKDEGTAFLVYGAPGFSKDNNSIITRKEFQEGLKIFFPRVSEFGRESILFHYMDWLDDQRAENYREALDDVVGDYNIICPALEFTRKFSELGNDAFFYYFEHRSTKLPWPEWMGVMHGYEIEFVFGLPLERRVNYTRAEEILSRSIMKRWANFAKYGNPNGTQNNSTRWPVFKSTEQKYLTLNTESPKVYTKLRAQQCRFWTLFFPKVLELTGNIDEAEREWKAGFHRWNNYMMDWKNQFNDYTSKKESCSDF
assay_remarks: Inhibition of equine serum BuChE using butyrylthiocholine chloride as substrate preincubated for 15 mins followed by substrate addition by Ellman's method
observable: IC50

Please list IC50 recorded for the compound c1ccc(-c2cc(N3CCCC3)c3ccccc3n2)cc1 0.43 µM

Report measured IC50; entry is CCCCNc1cc(-c2ccc3c(c2)OCO3)nc2ccccc12 7.85 µM

Given the compound OCCCNc1cc(-c2ccccc2)nc2ccccc12 , write its reported IC50. > 10 µM

State, in one line, measured IC50 of c1ccc2c(NCCCN3CCCCC3)cc(-c3ccc4c(c3)OCO4)nc2c1 1.45 µM

Name the recorded IC50 of the compound listed here: c1ccc(-c2cc(NCCCN3CCOCC3)c3ccccc3n2)cc1 4.44 µM

Fill in IC50 for record c1ccc2c(N3CCCCC3)cc(-c3ccc4c(c3)OCO4)nc2c1 2.09 µM

Please supply the value of reported IC50 for the item c1ccc2c(NCCCN3CCOCC3)cc(-c3ccc4c(c3)OCO4)nc2c1 8.15 µM

Item OCCCCNc1cc(-c2ccc3c(c2)OCO3)nc2ccccc12 : provide IC50 9.78 µM

Name the recorded IC50 of the item OCCCCNc1cc(-c2ccccc2)nc2ccccc12 in your answer. 4.31 µM

State its IC50 for this compound: OCCCCCCNc1cc(-c2ccccc2)nc2ccccc12 2.96 µM

Report IC50, nothing else, for this compound: c1ccc(-c2cc(NCCCN3CCCCC3)c3ccccc3n2)cc1 1.19 µM

Input c1ccc2c(N3CCCC3)cc(-c3ccc4c(c3)OCO4)nc2c1 , output reported IC50. 0.16 µM

Give the value of IC50 reported for the following: COc1cc(-c2ccc3c(c2)OCO3)nc2ccccc12 28.2 µM

Return value of IC50 for input OCCCCCCNc1cc(-c2ccc3c(c2)OCO3)nc2ccccc12 , no commentary. 6.49 µM

Tell us which IC50 value is on record for OCCCNc1cc(-c2ccc3c(c2)OCO3)nc2ccccc12 > 10 µM

====

tested_on: Acetylcholinesterase (Electrophorus electricus)
Sequence (O42275 whole entry): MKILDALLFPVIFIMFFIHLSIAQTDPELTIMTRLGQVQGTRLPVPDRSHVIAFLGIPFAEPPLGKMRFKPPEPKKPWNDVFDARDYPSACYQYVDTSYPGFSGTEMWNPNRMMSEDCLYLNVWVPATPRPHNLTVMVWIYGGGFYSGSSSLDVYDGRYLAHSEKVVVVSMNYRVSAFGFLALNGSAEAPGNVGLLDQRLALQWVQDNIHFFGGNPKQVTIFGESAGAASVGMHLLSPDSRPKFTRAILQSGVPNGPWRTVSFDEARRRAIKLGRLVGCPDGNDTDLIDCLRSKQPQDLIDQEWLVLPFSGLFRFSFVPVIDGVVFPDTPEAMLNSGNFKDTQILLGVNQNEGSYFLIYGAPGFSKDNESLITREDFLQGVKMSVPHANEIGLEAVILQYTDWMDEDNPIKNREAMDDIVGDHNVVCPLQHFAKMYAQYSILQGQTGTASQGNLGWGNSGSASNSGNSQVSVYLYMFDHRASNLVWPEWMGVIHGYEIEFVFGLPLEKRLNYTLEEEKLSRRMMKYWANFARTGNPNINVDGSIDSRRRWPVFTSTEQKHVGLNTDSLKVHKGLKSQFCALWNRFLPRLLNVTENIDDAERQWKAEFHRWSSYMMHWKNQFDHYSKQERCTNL
Answer each item with its documented pIC50.
Field pIC50 (float): negative decimal logarithm of the concentration in molar.

For the compound OCCCCCCNc1cc(-c2ccc3c(c2)OCO3)nc2ccccc12 , report pIC50. 5.36

Please look at this compound and report its pIC50: CCCCNc1cc(-c2ccc3c(c2)OCO3)nc2ccccc12 5.32

====

assay_remarks: Cytotoxicity against human HepG2 cells assessed as inhibition of cell viability at 10 uM after 48 hrs by MTT assay relative to control
Type: cell-based
experimental_parameters: read-out: INH
observable: cytotoxicity at 48 h, 10 µM (%)
Unit % implied. Number only.

Input c1ccc(-c2cc(N3CCCC3)c3ccccc3n2)cc1 , output reported cytotoxicity at 48 h, 10 µM. 12.6

Given the compound CCCCNc1cc(-c2ccc3c(c2)OCO3)nc2ccccc12 , write its reported cytotoxicity at 48 h, 10 µM. 15.4

For the compound c1ccc(-c2cc(NCCCN3CCOCC3)c3ccccc3n2)cc1 , report cytotoxicity at 48 h, 10 µM. 12.7

Give cytotoxicity at 48 h, 10 µM for COc1cc(-c2ccc3c(c2)OCO3)nc2ccccc12 [GRAVEOLININE] 8.76

Item c1ccc(-c2cc(NCCCN3CCCCC3)c3ccccc3n2)cc1 : provide cytotoxicity at 48 h, 10 µM 24.1

Dear colleague, please send me the reported cytotoxicity at 48 h, 10 µM for OCCCCCCNc1cc(-c2ccccc2)nc2ccccc12 when you can. 12

For the compound c1ccc2c(NCCCN3CCCCC3)cc(-c3ccc4c(c3)OCO4)nc2c1 , report cytotoxicity at 48 h, 10 µM. 43.7
